# System: KB cells
# experiment-summary: In vitro KB cell cytotoxicity assay (crystal violet)
# Format: cell-based
# conditions: Homo sapiens, 72 h, 3 days culture, read-out: KB Cell Cytotoxicity TD50
Where a name gives a salt, the structure may show the parent alone.

{"columns": ["compound", "IC50"],
 "data": [
  ["COc1ccc(S(=O)(=O)NC[C@H]2CN3C(=O)C[C@@H]3O2)cc1 (relative stereo)", "0.158 µg/mL"],
  ["N[C@@H](CO)C(=O)NCC1CN2C(=O)CC2O1 (some centres unmarked) [Example 76B, hydrochloride]", "8.81 µg/mL"],
  ["CC(C)[C@H](N)C(=O)N[C@@H](COCc1ccccc1)C(=O)OCC1CN2C(=O)CC2O1 (some centres unmarked) [Example 74B, hydrochloride]", "0.669 µg/mL"],
  ["O=C(N[C@@H](COCc1ccccc1)C(=O)OCC1CN2C(=O)CC2O1)OCc1ccccc1 (some centres unmarked)", "1.67 µg/mL"],
  ["N[C@@H](CC(=O)O)C(=O)N[C@@H](Cc1ccccc1)C(=O)NCC1CN2C(=O)CC2O1 (some centres unmarked) [Example 64B]", "2.65 µg/mL"],
  ["CC(C)[C@H](NC(=O)CN)C(=O)OCC1CN2C(=O)CC2O1 (some centres unmarked) [Example 55B, hydrochloride]", "0.522 µg/mL"],
  ["N[C@@H](Cc1ccccc1)C(=O)NCC1CN2C(=O)CC2O1 (some centres unmarked) [Example 63B, hydrochloride]", "0.573 µg/mL"],
  ["CC(=O)NCC(=O)NC[C@@H]1CN2C(=O)C[C@H]2O1 (relative stereo)", "0.341 µg/mL"]
]}

###

# System: Sarcoma 180
# experiment-summary: In vivo antitumor activity against Sarcoma 180
# Design: species or system male ICR mice
# conditions: 25 mg/kg/day, i.p., days 1, 5 and 9
Structures can show the parent of a compound that is named as a salt.
property: Mortality in 12 days

{"columns": ["compound", "test-result"],
 "data": [
  ["CC(=O)N[C@@H](CO)C(=O)OCC1CN2C(=O)CC2O1 (some centres unmarked) [Example 75A]", "0/6"],
  ["N[C@@H](CC(=O)O)C(=O)NCC(=O)NCC1CN2C(=O)CC2O1 (some centres unmarked) [Example 46B]", "0/6"],
  ["O=C(NC[C@@H]1CN2C(=O)C[C@H]2O1)NC[C@@H]1CN2C(=O)C[C@H]2O1 (racemic) [Example 34]", "5/6"],
  ["NCC(=O)NC[C@@H]1CN2C(=O)C[C@H]2O1 (relative stereo) [Example 43, hydrochloride]", "0/6"],
  ["COc1ccc(S(=O)(=O)NC[C@H]2CN3C(=O)C[C@@H]3O2)cc1 (relative stereo) [Example 38]", "0/6"]
]}

###

# Test system: Sarcoma 180
# experiment-summary: In vivo antitumor activity against Sarcoma 180
# Set-up: species or system male ICR mice
# conditions: 100 mg/kg/day, i.p., days 1, 5 and 9
Counter-ions that a name gives are not always drawn.
// reported Mortality in 12 days per item

{"columns": ["molecule", "experimental-target", "Mortality in 12 days"],
 "data": [
  ["N[C@@H](CC(=O)OC[C@H]1CN2C(=O)C[C@@H]2O1)C(=O)O (mixture of isomers) [Example 65B]", "Sarcoma 180", "0/6"],
  ["CC(C)[C@H](N)C(=O)OC[C@H]1CN2C(=O)C[C@@H]2O1.Cl (mixture of isomers) [Example 54B]", "Sarcoma 180", "0/6"],
  ["O=C(NCCCC[C@H](NC(=O)OCc1ccccc1)C(=O)OCC1CN2C(=O)CC2O1)OCc1ccccc1 (stereo partly shown) [Example 77A]", "Sarcoma 180", "2/6"],
  ["C[C@@H](NC(=O)Cc1cccs1)C(=O)N[C@H](C)C(=O)OCC1CN2C(=O)CC2O1 (stereo partly shown) [Example 52]", "Sarcoma 180", "2/6"],
  ["CC(C)[C@H](N)C(=O)N[C@@H](COCc1ccccc1)C(=O)OCC1CN2C(=O)CC2O1 (stereo partly shown) [Example 74B, hydrochloride]", "Sarcoma 180", "1/6"],
  ["CS(=O)(=O)NC[C@H]1CN2C(=O)C[C@H]2O1 (racemic) [Example 35]", "Sarcoma 180", "1/6"],
  ["CCCCCC(=O)NC[C@@H]1CN2C(=O)C[C@H]2O1 (racemic) [Example 4]", "Sarcoma 180", "0/6"]
]}

###

# Tested on: KB cells
# experiment-summary: In vitro KB cell cytotoxicity assay (crystal violet)
# Format: cell-based
# conditions: Homo sapiens, 72 h, 3 days culture, read-out: KB Cell Cytotoxicity TD50
# Protocol: In Vitro KB Cell Cytotoxicity Assay In vitro KB cell cytoxocity assay was done by modification of the crystal violet assay ([…] et al., Anal Biochem., 159, 109-113 (1986). KB cells were cultivated in Eagles minimum essential medium supplemented with 10% calf serum and incubated at 37° C. in a humidified 5% CO2 atmosphere to prepare a cell stock. Cells were counted using a neubauer hemocytometer and seeded in 96 well plates at 100 μl of 3×10^4 cells/ml and cultured for one day. […]
Where a name gives a salt, the structure may show the parent alone.
// reported IC50 per item
property: IC50

{"columns": ["compound", "test-result"],
 "data": [
  ["C#CC(=O)NC[C@@H]1CN2C(=O)C[C@H]2O1 (racemic) [Example 20]", "0.333 µg/mL"],
  ["COc1ccc(C(=O)NC[C@@H]2CN3C(=O)C[C@H]3O2)cc1OC (racemic) [Example 26]", "0.249 µg/mL"],
  ["C[C@@H](N)C(=O)OC[C@H]1CN2C(=O)C[C@@H]2O1.Cl (mixture of isomers) [Example 51B]", "0.867 µg/mL"],
  ["CC(=O)N[C@@H](CCCCNC(=O)OCc1ccccc1)C(=O)OCC1CN2C(=O)CC2O1 (stereo partly drawn) [Example 78]", "3.38 µg/mL"],
  ["[N-]=[N+]=NCC(=O)NC[C@@H]1CN2C(=O)C[C@H]2O1 (racemic) [Example 9]", "0.296 µg/mL"],
  ["CC(C)[C@H](N)C(=O)N[C@H](C(=O)OCC1CN2C(=O)CC2O1)C(C)C (stereo partly drawn) [Example 56B, hydrochloride]", "0.283 µg/mL"],
  ["O=COCC(=O)NC[C@@H]1CN2C(=O)C[C@H]2O1 (racemic) [Example 11]", "0.147 µg/mL"],
  ["O=C1C[C@H]2O[C@@H](CNS(=O)(=O)c3ccc(Cl)cc3)CN12 (racemic) [Example 37]", "0.484 µg/mL"],
  ["CC(=O)NC[C@H]1CN2C(=O)C[C@@H]2O1 [Example 2]", "0.77 µg/mL"],
  ["Cc1ccc(S(=O)(=O)NC[C@H]2CN3C(=O)C[C@H]3O2)cc1 (racemic) [Example 36]", "0.338 µg/mL"],
  ["C[C@H](N)C(=O)OC[C@H]1CN2C(=O)C[C@@H]2O1.Cl (mixture of isomers) [Example 48B]", "0.878 µg/mL"],
  ["O=C(CCCCCn1ccnn1)NC[C@@H]1CN2C(=O)C[C@H]2O1 (racemic) [Example 16]", "0.318 µg/mL"],
  ["CC(C)[C@@H](N)C(=O)N[C@@H](C(=O)OCC1CN2C(=O)CC2O1)C(C)C (stereo partly drawn) [Example 62B, hydrochloride]", "0.381 µg/mL"],
  ["C[C@@H](NC(=O)Cc1cccs1)C(=O)N[C@H](C)C(=O)OCC1CN2C(=O)CC2O1 (stereo partly drawn) [Example 52]", "0.197 µg/mL"],
  ["N[C@H](CCC(=O)NCC1CN2C(=O)CC2O1)C(=O)O (stereo partly drawn) [Example 69B]", "2.47 µg/mL"]
]}
